Where these numbers come from: BigSolDB 2.1

# setup conditions: in acetic acid, 288.15 K
assay metric: solubility (mole fraction)
Give bare numbers.

See these solved cases before continuing.
[[record]]
smiles_data = "O=C(O)CCCCCCCC(=O)O"
assay_metric = "solubility (mole fraction)"
readout_number = 0.0333

[[record]]
smiles_data = "O=C(O)CCCCCC(=O)O"
assay_metric = "solubility (mole fraction)"
readout_number = 0.0648

[[record]]
smiles_data = "O=C(O)CCCCCCC(=O)O"
assay_metric = "solubility (mole fraction)"
readout_number = 0.0115


Moving on to another compound below.
Request: What value of solubility (mole fraction) has been recorded for this entry: O=C(O)CCCC(=O)O
Response: 0.173

====

# setup conditions: in ethyl acetate, 323.15 K
assay metric: solubility (mole fraction)
Numbers only.

[[record]]
smiles_data = "O=C(O)CCCCCCCC(=O)O"
assay_metric = "solubility (mole fraction)"
readout_number = 0.0964


I need solubility (mole fraction) for every entry listed below, if you could help.
1. O=C(O)CCCCCC(=O)O
2. O=C(O)CCCCCCC(=O)O
3. O=C(O)CCCC(=O)O

Response:
[0.128, 0.0118, 0.307]

====

# setup conditions: in acetone, 315.15 K
assay metric: solubility (mole fraction)
Give bare numbers.

See these solved cases before continuing.
[[record]]
smiles_data = "O=C(O)CCCCCCC(=O)O"
assay_metric = "solubility (mole fraction)"
readout_number = 0.0301

[[record]]
smiles_data = "O=C(O)CCCCCCCC(=O)O"
assay_metric = "solubility (mole fraction)"
readout_number = 0.0806

[[record]]
smiles_data = "O=C(O)CCCC(=O)O"
assay_metric = "solubility (mole fraction)"
readout_number = 0.324


Moving on to another molecule below.
Request: What value of solubility (mole fraction) has been recorded for this entry: O=C(O)CCCCCC(=O)O
Response: 0.202

====

# setup conditions: in ethanol, 323.15 K
Would you kindly list solubility (mole fraction) for each of these compounds?

See these solved cases before continuing.
[[record]]
smiles_data = "O=C(O)CCCC(=O)O"
assay_metric = "solubility (mole fraction)"
result = 0.35

[[record]]
smiles_data = "O=C(O)CCCCCC(=O)O"
assay_metric = "solubility (mole fraction)"
result = 0.237

[[record]]
smiles_data = "O=C(O)CCCCCCCC(=O)O"
assay_metric = "solubility (mole fraction)"
result = 0.185


Moving on to another compound below.
Request: What value of solubility (mole fraction) has been recorded for this entry: O=C(O)CCCCCCC(=O)O
Response: 0.0847

====

Would you kindly list solubility (mole fraction) for each of these compounds?
# setup conditions: in ethyl acetate, 315.15 K
One number for each entry.

[[record]]
smiles_data = "O=C(O)CCCCCCCC(=O)O"
readout_number = 0.0524

[[record]]
smiles_data = "O=C(O)CCCC(=O)O"
readout_number = 0.176

[[record]]
smiles_data = "O=C(O)CCCCCC(=O)O"
readout_number = 0.0904


Request: What value of solubility (mole fraction) has been recorded for this entry: O=C(O)CCCCCCC(=O)O
Response: 0.00819

====

Would you kindly list solubility (mole fraction) for each of these compounds?
# setup conditions: in ethanol, 293.15 K
One number for each entry.

See these solved cases before continuing.
[[record]]
smiles_data = "O=C(O)CCCCCC(=O)O"
readout_number = 0.0851

[[record]]
smiles_data = "O=C(O)CCCCCCC(=O)O"
readout_number = 0.0253

[[record]]
smiles_data = "O=C(O)CCCCCCCC(=O)O"
readout_number = 0.0601


Moving on to another compound below.
Request: What value of solubility (mole fraction) has been recorded for this entry: O=C(O)CCCC(=O)O
Response: 0.158
